Attribution: patent US20060040957A1

Each item that follows carries a reported melting point.

Some compounds with recorded melting point:
| Compound | Measured Parameter | Observed Value |
| --- | --- | --- |
| Cc1c(=O)[nH]c(=O)n2ccsc12 | melting point | > 230 °C |
| COc1ccc(CNC(=O)c2cn3c(=O)n(Cc4ccccc4)c(=O)c(C)c3s2)cc1 | melting point | 160 to 162 °C |
| COC(=O)c1ccc(Cn2c(=O)c(C)c3sc(C(=O)NCc4ccc(F)cc4)cn3c2=O)cc1C | melting point | 179 to 180 °C |
| COC(=O)c1ccc(Cn2c(=O)c(C)c3sc(C(=O)NCc4cccc(F)c4)cn3c2=O)cc1 | melting point | 209 to 211 °C |
| O=C(NCc1ccccc1)c1cn2c(=O)n(Cc3ccc(Cl)cc3)c(=O)cc2s1 | melting point | > 220 °C |

Problem: Param item = Cc1c(=O)n(Cc2ccccc2)c(=O)n2cc(C(=O)NCc3ccc(Cl)c(Cl)c3)sc12 ; retrieve measured melting point.
Solution: 180 to 182 °C

Problem: Same for COC(=O)c1ccc(Cn2c(=O)c(C)c3sc(C(=O)NCc4ccc(F)cc4)cn3c2=O)cc1OC.Cl
Solution: 191 to 193 °C

----------
Each item that follows carries a reported IC50.
Molecular target: UniProtKB P09237
Sequence (P09237 95-267, species assumed): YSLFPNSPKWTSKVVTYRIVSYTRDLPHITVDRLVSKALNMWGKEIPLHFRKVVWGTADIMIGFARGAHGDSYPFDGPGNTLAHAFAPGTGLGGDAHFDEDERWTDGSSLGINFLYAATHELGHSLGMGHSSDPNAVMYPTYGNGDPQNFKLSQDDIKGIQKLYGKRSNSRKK
Test: Thiopeptolide substrate hydrolysis assay, MMP-7FL
Format: biochemical
Conditions: HEPES pH 7.0, 22° C., read-out: IC50 (μM) Versus Certain MMPs: MMP-07 FL
Description: The invention compounds of Formula I have been evaluated in standard assays for their ability to inhibit the catalytic activity of various MMP enzymes. Thiopeptolide substrates show virtually no decomposition or hydrolysis at or below neutral pH in the absence of a matrix metalloproteinase enzyme. Several representative compounds have been evaluated for their ability to inhibit various matrix metalloproteinase enzymes.
Where a name gives a salt, the structure may show the parent alone.

Some molecules with recorded IC50:
| Molecule | IC50 |
| --- | --- |
| Cc1c(=O)n(Cc2ccc(C(=O)OCCN(C)C)cc2)c(=O)n2cc(C(=O)NCc3ccncc3)sc12 [Example 63, dihydrochloride] | > 100 µM |
| COC(=O)Nc1cc(Cn2c(=O)c(C)c3sc(C(=O)NCc4ccc(F)cc4)cn3c2=O)on1 | 87 µM |
| Cc1ccc(CNC(=O)c2cn3c(=O)n(Cc4ccccc4)c(=O)c(C)c3s2)cc1 | 28 µM |
| COc1ccc(CNC(=O)c2cn3c(=O)n(Cc4ccccc4)c(=O)c(C=O)c3s2)cc1 | > 30 µM |
| Cc1c(=O)n(Cc2ccccc2)c(=O)n2cc(C(=O)NCc3ccc(F)c(F)c3)sc12 | > 30 µM |

Problem: Hello, I am looking for reported IC50 with UniProtKB P09237 for O=C(NCc1ccccc1)c1cn2c(=O)n(Cc3ccccc3)c(=O)cc2s1 . Could you help?
Solution: 65 µM

Problem: Same for O=C(CCc1ccccc1)c1cn2c(=O)n(Cc3ccccc3)c(=O)cc2s1
Solution: > 30 µM

Problem: Same for O=C(NCc1ccncc1)c1cn2c(=O)n(Cc3ccccc3)c(=O)cc2s1 [Example 9, hydrochloride]
Solution: > 100 µM

Problem: Same for COc1ccc(CNC(=O)c2cn3c(=O)n(Cc4ccc(C(=O)OCCN(C)C)cc4)c(=O)c(C)c3s2)cc1 [Example 57, hydrochloride]
Solution: > 30 µM
